- test_target: ΔCTD_Reg1 (amino acids 1 to 546 of human Regnase-1) phosphorylation by TBK1 (Homo sapiens)
- Construct: made in house; host or cells: Expi293 cells
- Sequence (Q5D1E8 1-546, stated change not applied): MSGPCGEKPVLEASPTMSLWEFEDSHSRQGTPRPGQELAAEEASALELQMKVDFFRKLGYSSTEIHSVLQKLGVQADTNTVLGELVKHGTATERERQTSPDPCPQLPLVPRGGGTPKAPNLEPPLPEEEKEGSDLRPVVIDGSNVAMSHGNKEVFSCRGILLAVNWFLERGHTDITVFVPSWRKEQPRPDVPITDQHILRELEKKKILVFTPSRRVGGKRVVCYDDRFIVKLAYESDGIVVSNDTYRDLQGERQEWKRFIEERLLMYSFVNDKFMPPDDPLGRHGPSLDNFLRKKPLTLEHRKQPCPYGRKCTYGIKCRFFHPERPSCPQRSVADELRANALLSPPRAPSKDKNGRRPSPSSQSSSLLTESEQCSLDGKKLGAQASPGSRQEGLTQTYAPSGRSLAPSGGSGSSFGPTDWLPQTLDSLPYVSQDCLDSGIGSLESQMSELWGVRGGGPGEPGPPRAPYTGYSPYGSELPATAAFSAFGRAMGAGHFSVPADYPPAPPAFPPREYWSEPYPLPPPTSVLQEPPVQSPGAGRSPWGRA
- protocol_text: Regnase-1 phosphorylation inhibition by compounds (AlphaScreen), TBK1, CTD-deficient Regnase-1
- Assay type: biochemical
- run_conditions: Table 13; phosphorylation by TBK1; read-out: Phosphorylation inhibition ΔCTD_Reg1, 50% inhibition concentration (TBK1)
pIC50: −log10 of the molar value. Residues, ends and D or L forms follow the SMILES beside them.
measured_attribute: pIC50

>>> recorded_result("CC[C@H](C)[C@@H]1NC(=O)[C@H](CC(=O)O)NC(=O)[C@H](C)N(C)C(=O)C[C@@H](C(=O)N2CCCC2)NC(=O)[C@H](Cc2c[nH]c3ccccc23)NC(=O)[C@H](CC(=O)O)NC(=O)[C@H](Cc2c[nH]c3ccccc23)NC(=O)[C@H](Cc2ccc(O)cc2)NC(=O)[C@H](CC(=O)O)NC(=O)[C@H](Cc2ccccc2)NC(=O)[C@H](Cc2c[nH]c3ccccc23)NC1=O [PP17] (HELM PEPTIDE1{[meA].D.I.W.F.D.Y.W.D.W.D.[C1CCN([*:1])C1]}$PEPTIDE1,PEPTIDE1,1:R1-11:R3$$$V2.0)")
6.52
